Each entry below lists one item and its recorded GI50 value.
- Tested on: RXF 393
- EXPERIMENT NOTES: NCI tumour cell line growth inhibition, 48 h
Activity calls are given as the source filed them. No stated cut-off is given here; in the data, active = GI50 up to about 1.1 µM and inactive = higher.

COMPOUND	GI50
O=C1CC[C@@]23CC(=O)O[C@@H]2CCCC3C1 (some centres not stated)	18.5 µM (inactive)
CN(C)c1n/c(=N/Cc2ccccn2)ss1	> 8.79 µM (inactive)
Cc1ccc(C)c2c1C1CCCCC3(OCCCO3)C21O (configuration not stated)	> 100 µM (inactive)
N=C(CC(=O)Nc1ccc(Cl)cc1)Nc1ccccc1	> 100 µM (inactive)
O=C(O)CCCSc1ccccc1	> 100 µM (inactive)
O=c1sc(-c2nc3ccccc3[nH]2)c(/N=C/c2ccccc2)n1-c1ccccc1	62.4 µM (inactive)
CCCCNC(=O)c1cc2c(cc1Cl)Sc1nccn1S2(=O)=O	95.9 µM (inactive)
O=C(O)/C=C(/CC(=O)O)C(=O)O	16 µM (inactive)
O=C(O)C1=C(C(=O)O)Oc2ccccc2O1	> 100 µM (inactive)
C/C(Cl)=N/OC(=O)Nc1ccc(F)c([N+](=O)[O-])c1	12.1 µM (inactive)
O=C1CCCCCCCCCCC(=O)N2CCOCCOCCN1Cc1cccc(n1)C2	28.4 µM (inactive)
C/C(CC(=O)CCCC(=O)Nc1ccc(Cl)cc1Cl)=N/NC(=O)CC#N	> 100 µM (inactive)

* * *

- Tested on: NCI/ADR-RES
- EXPERIMENT NOTES: NCI tumour cell line growth inhibition, 48 h
Calls of active or inactive are those of the source. No stated cut-off is given here; in the data, active = GI50 up to about 1.1 µM and inactive = higher.
Labels: active, inactive

MOLECULE	ASSIGNED CATEGORY
CC(=O)N1CCN(CCCCN2c3ccccc3Sc3cc(N=[N+]=[N-])ccc32)CC1	inactive
COC(=O)C1=C(OC(=O)/C(=C/c2ccc(Cl)cc2)c2ccccc2)C(C(=O)OC)[C@@]2(O)[C@@H](C(=O)OC)[C@H](C)C[C@@H]1[C@@H]2C(=O)OC (stereo partly drawn)	inactive
O=C1c2c[nH]nc2C(c2ccccc2)N1c1ccccc1 (stereo not drawn)	inactive
CCOc1cc2c(cc1O)CC[C@@H]1[C@@H]2CC[C@]2(C)[C@@H](O)CC[C@@H]12	active
COc1ccc(CCNC(=O)Cc2cc(OC)c(OC)cc2CO)cc1OC	inactive
Cc1nc(O)c2ncn(CCO)c2n1	inactive
Cn1cc(NC(=O)Nc2cc(C(=O)Nc3cc(C(=O)Nc4ccc(S(=O)(=O)O)c5cc(S(=O)(=O)O)ccc45)n(C)c3)n(C)c2)cc1C(=O)Nc1cc(C(=O)Nc2ccc(S(=O)(=O)O)c3cc(S(=O)(=O)O)ccc23)n(C)c1	inactive
CC(=O)N1N=C(c2c(O)ccc3ccccc23)CC1c1ccc(Cl)cc1 (stereo not drawn)	inactive

* * *

- Test system: SR
- EXPERIMENT NOTES: NCI tumour cell line growth inhibition, 48 h
Calls of active or inactive are those of the source. Cut-off read from the data, not from the text of the source: active = GI50 up to about 1.1 µM and inactive = higher.
Classes used: yes = active, no = inactive

MOLECULE	ASSIGNED CATEGORY
CCCCCCNCCc1c[nH]cn1	no
COc1cc(C2c3cc4c(cc3[C@@H](Nc3ccc(N(C)C)cc3)[C@H]3COC(=O)C23)OCO4)cc(OC)c1O (stereo not given in full)	yes
COc1c(CC=C(C)C)c(O)c(C(CC(C)C)c2c(O)c(C(C)=O)c(O)c3c2OC(C(C)(C)O)C3)c(O)c1C(C)=O (stereo not given) [ACROFOLIONE A]	no
O=C(O)CCCc1nc2c(n1Cc1ccccc1)C(=O)c1ccccc1C2=O	no
CN(C)CCN(C)CCC(=O)/C=C/c1ccccc1	no
CCN(CC)CCNc1ccc2ncn3c4ccccc4c(=O)c1c23	no
Cc1cccc(O)c(=O)c1	no
CC(=O)N1CCN(CCCCN2c3ccccc3Sc3cc(N=[N+]=[N-])ccc32)CC1	no
CCCCC1NC=Nc2c1ccc1c2[nH]c2ccccc21 (stereo not given)	no
C/C(=N/NS(=O)(=O)c1ccc(C)cc1)c1cccc[n+]1[O-]	no

* * *

- System: DLD-1
- EXPERIMENT NOTES: NCI tumour cell line growth inhibition, 48 h
Activity calls are given as the source filed them. No stated cut-off is given here; in the data, active = GI50 up to about 1.1 µM and inactive = higher.
RECORDED ENDPOINT: GI50

CHEMICAL STRING	RECORDED ENDPOINT	REPORTED RESULT
C/C(CC(=O)CCCC(=O)Nc1ccc(Cl)cc1Cl)=N/NC(=O)CC#N	GI50	> 100 µM (inactive)
O=c1[nH]c2c(O)cccc2c2cc3c(c(O)c12)OCO3	GI50	14.6 µM (inactive)
CC1c2c(Cl)nc3ccccc3c2Oc2c1c(Cl)nc1ccccc21	GI50	> 100 µM (inactive)
C[N+](C)=c1[nH]c2ccccc2[nH]1	GI50	> 100 µM (inactive)
N=C(CC(=O)Nc1ccc(Cl)cc1)Nc1ccccc1	GI50	> 100 µM (inactive)

* * *

# maps each entry to its GI50
- System: M14
- EXPERIMENT NOTES: NCI tumour cell line growth inhibition, 48 h
Calls of active or inactive are those of the source. Cut-off read from the data, not from the text of the source: active = GI50 up to about 1.1 µM and inactive = higher.
RECORDED ENDPOINT: GI50

COMPOUND	RECORDED ENDPOINT	REPORTED RESULT
C#CCOCCCC(=O)O	GI50	> 100 µM (inactive)
C[C@]12CC[C@H]3[C@@H](CCC4=CC(=O)CC[C@@]43C)[C@@H]1CC[C@@H]2OC(=O)c1cccc2c(=O)c3ccccc3[nH]c12	GI50	> 100 µM (inactive)
Cc1nc2ccc(S(=O)(=O)O)cc2c(=O)n1-c1ccc(C(=O)NN2C(=O)C(Cl)C2c2ccccc2O)cc1 (centres undefined)	GI50	> 100 µM (inactive)
CNC(=O)CCCN(C)C(=O)CCCCC(=O)N(C)C	GI50	> 100 µM (inactive)
CCOc1ccccc1N1CSc2nnc(-c3ccccc3)n2C1	GI50	> 100 µM (inactive)
CCCCc1c2c(nc3c1CCCC3O)/C(=C/c1ccccc1)CCC2 (centres undefined)	GI50	23.1 µM (inactive)
CCOC(=O)NC(=O)c1cn(CCCCCOC(=O)NCCCCCCNC(=O)OCCCCCn2cc(C(=O)NC(=O)OCC)c(=O)[nH]c2=O)c(=O)[nH]c1=O	GI50	31 µM (inactive)
CSc1c(C#N)c(O)nc(N)c1C(=O)Nc1ccc(Cl)cc1	GI50	5.2 µM (inactive)
O=C(N/C(=C\c1ccccc1Cl)c1nc2ccccc2[nH]1)c1ccccc1	GI50	19.8 µM (inactive)
Cc1c(C(=O)CC(=O)C(=O)Nc2cccc(C(F)(F)F)c2)[n+]([O-])c2ccccc2[n+]1[O-]	GI50	3.37 µM (inactive)
CC1=NN(c2nc(N)nc(/C(C#N)=C/c3cccn3-c3cc(Cl)cc(Cl)c3)n2)C(C)(C)C1	GI50	> 100 µM (inactive)
Cc1ccc(-c2cc(=O)c3cc(C)c(C)c(C(=O)O)c3o2)cc1C	GI50	> 100 µM (inactive)
c1ccc2c3nnc(c2c1)SCCSCCSc1nnc(c2ccccc12)SCCSCCS3	GI50	> 100 µM (inactive)
COC(=O)NCCc1n[nH]c2c1C(=O)C=C(Nc1ccccc1OC)C2=O	GI50	16.2 µM (inactive)
COC(=O)C(N)CCCC(N)C(=O)NC(C)C(=O)NC(CCC(=O)NCCNCCNc1c2ccccc2nc2cccc([N+](=O)[O-])c12)C(N)=O (centres undefined)	GI50	13.4 µM (inactive)
CC(=O)c1c(CO[N+](=O)[O-])[n+]([O-])c2ccccc2[n+]1[O-]	GI50	35.1 µM (inactive)
CCOc1ccc(/C=C2\N=C(c3ccccc3)OC2=O)cc1	GI50	> 100 µM (inactive)
COc1ccccc1N1C(=O)CSC1c1cccc(Oc2ccccc2)c1 (centres undefined)	GI50	17.7 µM (inactive)
NC(=O)C1=C(O)C[C@@H]2CC3Cc4cccc(O)c4C(=O)C3=C(O)[C@]2(O)C1=O (some centres undefined)	GI50	1.84 µM (inactive)

* * *

- Test system: DMS-273
- EXPERIMENT NOTES: NCI tumour cell line growth inhibition, 48 h
The source made the active and inactive calls. No stated cut-off is given here; in the data, active = GI50 up to about 1.1 µM and inactive = higher. Where a SMILES comes first, the peptide text is derived from it. [ ]: non-standard residue; d: D form. The star is where a group is joined. NMeF = CN[C@@H](Cc1ccccc1)C(=O)O; NMeV = CN[C@H](C(=O)O)C(C)C; Boc = CC(C)(C)OC(=O)*; OBn = c1ccc(CO*)cc1
Outcomes: True (active), False (inactive)

COMPOUND	ASSIGNED CATEGORY
O=C(CCN1CCCCC1)Nc1ccc2c(c1)C(=O)c1ccc(NC(=O)CCN3CCCCC3)cc1C2=O	False
O=c1c2cc(Br)cc(Br)c2nc(CCCl)n1-c1ccc(O)c([N+](=O)[O-])c1	False
Cc1nc2nn(Cc3ccccc3)cc2c(=O)o1	False
CCCCC1NC=Nc2c1ccc1c2[nH]c2ccccc21 (stereo not drawn)	False
N=c1n(CC(=O)NC23CC4CC(CC(C4)C2)C3)c2ccccc2n1CC(=O)NC12CC3CC(CC(C3)C1)C2	False
OC12c3ccccc3C1(N1CCOCC1)CCCCC21OCCCO1 (stereo not drawn)	False
CN(C)CCN(C)CCC(=O)/C=C/c1ccccc1	False
CC(=O)OCC1OC(n2cccnc2=O)C(OC(C)=O)C1OC(C)=O (stereo not drawn)	False
CN(C)c1ccc(/C=C/c2ccc(/C=C/c3ccc(N(C)C)cc3)cc2)cc1	False
CN(C(=O)c1cccs1)C(=S)N1CCN(c2ccccn2)CC1	False
C/C(=N/NS(=O)(=O)c1ccc(C)cc1)c1cccc[n+]1[O-]	False
OC12c3ccccc3C3CCC4(OCCO4)C3C1c1ccccc12 (stereo not drawn)	False
Cc1cc(N(CCC#N)CCC#N)ccc1/C=C(\NC(=O)/C=C/c1ccccc1)C(=O)Nc1ccc(Cl)cc1	True
O=C(O)C1=C(C(=O)O)Oc2ccccc2O1	False
CCOC(=O)C(=Cc1ccc(Oc2ccccc2)cc1)C(=O)OCC	False
CC1c2c(Cl)nc3ccccc3c2Oc2c1c(Cl)nc1ccccc21	False
COC(=O)C1CCC(N2C(=O)CCC2C(=O)OC)=N1 (stereo not drawn)	False
O=C1/C(=C/c2ccc3c(c2)OCCO3)CCC/C1=C\c1ccc2c(c1)OCCO2	False
C/C(=N\NC(=O)CC(=O)Nc1ccc(C)cc1)c1cc2ccccc2oc1=O	False
O=c1sc(-c2nc3ccccc3[nH]2)c(/N=C/c2ccccc2)n1-c1ccccc1	False
CC(C)[C@@H](C(=O)N1CCC[C@H]1C(=O)OCc1ccccc1)N(C)C(=O)[C@H](C(C)C)N(C)C(=O)[C@H](Cc1ccccc1)N(C)C(=O)[C@H](NC(=O)OC(C)(C)C)C(C)C (Boc-[dV][NMeF][NMeV][NMeV]P-OBn)	False
O=C1c2ccccc2C(=O)C2C1C1C(=O)c3ccccc3C(=O)C21 (stereo not drawn)	False
CN1Nc2ccccc2CC1=O	False
C[N+](C)=c1[nH]c2ccccc2[nH]1	False
CCCCc1c2c(nc3c1CCCC3O)/C(=C/c1ccccc1)CCC2 (stereo not drawn)	False
CCOC(=O)NC(=O)c1cn(CCCCCOC(=O)NCCCCCCNC(=O)OCCCCCn2cc(C(=O)NC(=O)OCC)c(=O)[nH]c2=O)c(=O)[nH]c1=O	False
O=C(O)c1ccc2c(c1)C(=O)N(c1ccc(S(=O)(=O)c3ccc(N4C(=O)c5ccc(C(=O)O)cc5C4=O)cc3)cc1)C2=O	False
CS(=O)(=O)NNS(=O)(=O)c1ccc(Br)cc1	False
CCCCCCCCCCCc1nnc(N)o1	False
Cc1ccc(C)c2c1C1CCCCC3(OCCCO3)C21O (stereo not drawn)	False
O=C(N/N=C/c1ccccc1O)N/N=C/c1ccccc1O	False
CC(C)(C)NNC(=O)/C(=C/c1ccc(Oc2ccc(Cl)c(Cl)c2)cc1)NC(=O)c1ccccc1	False
Nc1nc(=O)[nH]c2c1cnn2Cc1ccccc1	False
COc1cc2ccnc(-c3c4ccccc4c(N)c4c(OC)c(OC)ccc34)c2cc1OC	False
COc1ccc(-c2csc(=[N+]3CCCCC3)s2)cc1	False
COC(=O)CCC(=O)C(CC(=O)OC)C(=O)CCC(=O)NCCc1ccccc1 (stereo not drawn)	False
CSC(C1c2ccccc2N(C)C2=NC(=O)N(C)C(=O)C21Cl)S(=O)(=O)c1ccc(C)cc1 (stereo not drawn)	False
CN(C)C(=O)Oc1c(-c2ccccc2)c(=O)n2c3ccccc3n3c(=O)n(C)c(=O)c1c23	False
